test-target: UniProt P49760
Sequence (P49760 whole entry): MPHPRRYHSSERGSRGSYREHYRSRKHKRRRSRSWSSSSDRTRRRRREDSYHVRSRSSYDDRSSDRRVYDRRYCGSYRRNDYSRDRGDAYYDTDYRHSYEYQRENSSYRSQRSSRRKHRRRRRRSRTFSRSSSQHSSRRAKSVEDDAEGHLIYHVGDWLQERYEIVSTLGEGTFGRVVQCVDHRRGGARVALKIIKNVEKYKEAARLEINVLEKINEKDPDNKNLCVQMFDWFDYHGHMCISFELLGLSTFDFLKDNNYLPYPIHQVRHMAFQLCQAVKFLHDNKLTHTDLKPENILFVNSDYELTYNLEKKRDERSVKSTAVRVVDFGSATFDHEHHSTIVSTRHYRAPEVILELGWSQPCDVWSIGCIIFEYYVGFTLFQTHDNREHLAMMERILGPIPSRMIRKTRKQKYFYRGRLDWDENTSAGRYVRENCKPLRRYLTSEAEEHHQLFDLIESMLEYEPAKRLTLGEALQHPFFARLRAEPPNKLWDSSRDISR
endpoint-label: pIC50
Value format note: pIC50 is -log10 of concentration (mol/L); just state the number.

For record N=C1NC(=O)/C(=C/c2ccc3c(c2)CCO3)S1 the listed pIC50 is 7.17

* * *

test-target: CLK1 (Homo sapiens, UniProt P49759)
Sequence (P49759 whole entry): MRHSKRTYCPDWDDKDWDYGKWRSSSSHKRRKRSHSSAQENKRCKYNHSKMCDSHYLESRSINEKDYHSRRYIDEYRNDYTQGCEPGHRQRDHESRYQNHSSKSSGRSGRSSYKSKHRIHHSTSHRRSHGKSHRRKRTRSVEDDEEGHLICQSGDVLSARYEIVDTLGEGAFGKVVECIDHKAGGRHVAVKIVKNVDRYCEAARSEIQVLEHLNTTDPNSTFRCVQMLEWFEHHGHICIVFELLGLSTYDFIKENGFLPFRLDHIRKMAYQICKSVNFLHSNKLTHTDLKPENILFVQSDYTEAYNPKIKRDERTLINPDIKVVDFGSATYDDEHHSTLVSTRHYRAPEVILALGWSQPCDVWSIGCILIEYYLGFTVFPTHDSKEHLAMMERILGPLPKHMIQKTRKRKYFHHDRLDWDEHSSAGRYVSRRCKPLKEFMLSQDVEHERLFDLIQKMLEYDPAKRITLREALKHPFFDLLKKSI
endpoint-label: pIC50
Scale explanation: pIC50 corresponds to minus log10 of a concentration expressed in moles per litre.

Entry N=C1NC(=O)/C(=C/c2ccc3c(c2)CCO3)S1 — recorded pIC50 = 7.67

* * *

test-target: CLK3 (Homo sapiens)
Sequence (P49761 whole entry): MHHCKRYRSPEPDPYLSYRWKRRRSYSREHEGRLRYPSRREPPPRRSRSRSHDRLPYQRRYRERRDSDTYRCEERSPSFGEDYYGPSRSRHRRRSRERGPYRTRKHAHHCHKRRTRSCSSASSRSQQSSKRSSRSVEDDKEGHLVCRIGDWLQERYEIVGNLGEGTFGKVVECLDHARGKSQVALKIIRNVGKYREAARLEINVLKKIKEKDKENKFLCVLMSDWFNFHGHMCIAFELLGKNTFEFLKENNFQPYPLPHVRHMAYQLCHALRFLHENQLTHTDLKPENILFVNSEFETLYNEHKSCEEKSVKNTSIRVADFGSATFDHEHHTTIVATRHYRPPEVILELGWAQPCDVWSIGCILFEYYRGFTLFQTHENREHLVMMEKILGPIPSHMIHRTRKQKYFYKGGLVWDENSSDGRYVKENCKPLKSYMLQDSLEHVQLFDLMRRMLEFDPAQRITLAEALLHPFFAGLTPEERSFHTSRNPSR
endpoint-label: pIC50
Scale note: pIC50 = -log10(concentration in M).

// returns pIC50 for N=C1NC(=O)/C(=C/c2ccc3c(c2)CCO3)S1 [compound 1] with CLK3 (Homo sapiens); value = 6.94
